TARGET OR TEST SYSTEM: dopamine D2 receptor (Homo sapiens, UniProt P14416)
Construct: expressed in transfected cells; host or cells: Human embryonic kidney-293 cells
Sequence (P14416 whole entry): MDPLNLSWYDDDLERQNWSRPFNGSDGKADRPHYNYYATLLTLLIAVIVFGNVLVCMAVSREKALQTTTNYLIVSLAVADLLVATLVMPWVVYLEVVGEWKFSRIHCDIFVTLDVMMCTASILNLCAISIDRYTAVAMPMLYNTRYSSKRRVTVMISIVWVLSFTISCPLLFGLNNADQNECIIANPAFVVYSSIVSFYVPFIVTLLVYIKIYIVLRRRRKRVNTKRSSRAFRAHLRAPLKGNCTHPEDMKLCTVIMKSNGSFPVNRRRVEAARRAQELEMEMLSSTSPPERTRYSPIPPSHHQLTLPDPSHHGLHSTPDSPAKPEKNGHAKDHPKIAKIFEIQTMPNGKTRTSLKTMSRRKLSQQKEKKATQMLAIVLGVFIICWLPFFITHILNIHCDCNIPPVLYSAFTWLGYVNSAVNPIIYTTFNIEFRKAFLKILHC
ASSAY PROCEDURE: Competitive inhibition test using radioligands ([3H]-sulpiride), D2 receptor
Assay type: binding
TEST CONDITIONS: […], arylpiperazine-arylurea compounds at 100 nM, [3H]-sulpiride, HEK-293 cells (Table 2); read-out: D2 Receptor Displacement (%)
Structures can show the parent of a compound that is named as a salt.
MEASUREMENT LABEL: inhibition (%)
Provide only the numeric value, understood in %.

Reference set (4 entries):
                                   compound  experimental_result
0  O=C(NCCCCN1CCN(c2cccc(Cl)c2Cl)CC1)Nc1nc2ccccc2s1 [Compound 21j]                 35.5
1  O=C(NCCCCN1CCN(c2ccc(Cl)cc2)CC1)Nc1cnc2ccccc2c1 [Compound 8i]                 10.2
2  O=C(NCCCCN1CCN(c2ccc(Cl)cc2)CC1)Nc1ccc2ccccc2n1 [7i•HCl]                 13.4
3  O=C(NCCCCN1CCN(c2cccc(Cl)c2Cl)CC1)Nc1cnc2ccccc2c1 [8j•HCl]                  4.8

So what's the measured inhibition for this one? O=C(NCCCCN1CCN(c2ccc(Cl)cc2)CC1)Nc1nc2ccccc2s1 [Compound 21i] 36.8

Same for O=C(NCCCCN1CCN(c2ccc(Cl)cc2)CC1)Nc1cc2ccccc2cn1 [Compound 11i] -14.7
